Experiment: Clinical drug-drug interaction study in healthy volunteers (tolbutamide alone vs with relacorilant)
Details: human, plasma, po, 500 mg
readoutKind: AUC(0-t) (µg·h/mL)
Supply the numeric figure in µg·h/mL, leaving out any unit text.

*Q* Please list AUC(0-t) recorded for the compound CCCCNC(=O)NS(=O)(=O)c1ccc(C)cc1 [Tolbutamide, tolbutamide, reference compound]
*A* 579

* * *

Experiment: Clinical drug-drug interaction study in healthy volunteers (tolbutamide alone vs with relacorilant)
Conditions: human, plasma, po, 500 mg
readoutKind: Cmax (ng/mL)
Supply the numeric figure in ng/mL, leaving out any unit text.

*Q* Please list Cmax recorded for the molecule CCCCNC(=O)NS(=O)(=O)c1ccc(C)cc1 [Tolbutamide, tolbutamide, reference compound]
*A* 42400
